# credit: PubChem BioAssay (NCI)

- Assay Protocol: NCI Yeast Anticancer Drug Screen. Data for the wt2 strain (AID 169);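 further: 0% = growth of vehicle-treated yeast cultures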
- Applied Conditions: S. cerevisiae wt2 strain growth inhibition; at 100.0 µM; hits give high values
Compounds without any hit were thinned out: in the full panel of roughly 79,000, 15% have a hit.
Reported growth inhibition values for the following compounds.
Provide the reading as a plain figure in %.

Here is how some compounds turned out for growth inhibition.
- Compound: "COc1cc(CC2CC(c3ccc4c(c3)OCO4)OC2=O)cc(OC)c1OC (stereo not given)"
  growth inhibition (%): 0
- Compound: "N#C/C(=C\\c1cccc(OCc2ccccc2)c1)c1ccc([N+](=O)[O-])cc1"
  growth inhibition (%): -75
- Compound: "Cc1cc(N=Nc2ccc(S(=O)(=O)[O-])cc2)cc(C(=O)[O-])c1[O-].NC1CCCCC1N.[Na+].[Pt+4]"
  growth inhibition (%): 97

Consider O=C1CSc2cc([N+](=O)[O-])ccc2N1 . Its measured growth inhibition is 4

Consider O=C1c2ccccc2C(=O)c2cc(CBr)ccc21 . Its measured growth inhibition is 69

---

- Assay Protocol: NCI Yeast Anticancer Drug Screen. Data for the wt1 strain (AID 149);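 further: 0% = growth of vehicle-treated wt1 cultures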
- Applied Conditions: S. cerevisiae wt1 strain (SPY 50644) growth inhibition; at 1.2 µM; hits give high values
The panel holds about 79,000 compounds, 15% with a hit somewhere; the sample as a whole holds those more often.
Quantity Name: growth inhibition (%)
Provide the reading as a plain figure in %.

Here is how some molecules turned out for growth inhibition.
- Molecule: "CC1(C)[C@@H]2CC[C@]1(C)[C@H](OC(=O)CSC#N)C2"
  growth inhibition, %: 1
- Molecule: "CC(=O)OCCOCNC(=S)N/N=C(\\C)c1cnccn1"
  growth inhibition, %: -14
- Molecule: "CC(C)/C(Cl)=N\\OC(=O)Nc1ccccc1F"
  growth inhibition, %: 1
- Molecule: "CCCCCCCCNC(=O)C1=C(C)NC(C)=C(C(=O)NCCCCCCCC)C1"
  growth inhibition, %: 2
- Molecule: "CC(C(=O)N1C(=O)N(C(=O)[C@H](C)C(O)c2ccccc2)[C@H](c2ccccc2)[C@H]1c1ccccc1)[C@@H](O)c1ccccc1 (some centres not stated)"
  growth inhibition, %: 1
- Molecule: "c1ccc2c(c1)NC(NC1Nc3ccccc3N1)N2"
  growth inhibition, %: 0
- Molecule: "CC1=C(C)Cc2c(O)ccc(O)c2C1"
  growth inhibition, %: -1
- Molecule: "C/C(=N/NC(=S)N1CCCCCC1)c1cccc(/C(C)=N\\NC(=S)N2CCCCCC2)n1"
  growth inhibition, %: 17

Now look at this one.
Consider CCC/C(Cl)=N\OC(=O)Nc1ccc(Br)cc1 . Its measured growth inhibition is 13

---

- Assay Protocol: NCI Yeast Anticancer Drug Screen. Data for the bub3 strain (AID 167)
- Applied Conditions: S. cerevisiae bub3 mutant strain, at 100.0 µM, hits give high values
About 79,000 compounds went through this panel and 15% of them were active in at least one assay; those are over-represented in the sample as a whole.
Quantity Name: growth inhibition (%)
Provide the reading as a plain figure in %.

Here is how some compounds turned out for growth inhibition.
- Compound: "S=C(N/N=C/c1ccccn1)Nc1ccc(Cl)cc1"
  Unit Descriptor: "%"
  growth inhibition: 49
- Compound: "CC(O)C(O)C(O)C(/C=N\\Nc1ccccc1)=N/Nc1ccccc1 (centres undefined)"
  Unit Descriptor: "%"
  growth inhibition: 30
- Compound: "c1ccc(-c2nc3cccnc3s2)cc1"
  Unit Descriptor: "%"
  growth inhibition: 14

Now look at this one.
Consider Cc1c(C(=O)C(=O)c2ccccc2)c(C)c(C(=O)C(=O)c2ccccc2)c(C)c1C(=O)C(=O)c1ccccc1 . Its measured growth inhibition is -16

---

Reported growth inhibition values for the following molecules.
- Assay Protocol: NCI Yeast Anticancer Drug Screen. Data for the mgt1 strain (AID 153)
- Applied Conditions: S. cerevisiae mgt1 mutant growth inhibition; at 11.0 µM; hits give high values
- Method: Growth inhibition of yeast strains with defined genetic alterations is measured as a screen for potential anti-cancer activity. Selected strains with alterations in DNA damage repair or cell cycle control were exposed to compounds and growth inhibition was measured relative to vehicle treated controls. The strain used in this assay is mgt1
This is part of a sample that, as a whole, favours compounds with a hit. Of some 79,000 tested, about 15% had one in any assay. Calls of active or inactive are those of the source. No stated cut-off is given here; in the data, active means growth inhibition above about 70%; inactive means the rest.

- Input Smiles: "CC(C)OC(=O)Oc1ccccc1OC(=O)OC(C)C"
  growth inhibition: "3% (inactive)"
- Input Smiles: "CCOC(=O)C1=C(C(=O)c2ccccc2)C(c2ccccc2[N+](=O)[O-])C(C(=O)c2ccccc2)=C(C(=O)OCC)N1"
  growth inhibition: "0% (inactive)"

Now look at this one.
Consider CN(C)c1ccc(Sc2ccc3nc(N)nc(N)c3c2)cc1 . Its measured growth inhibition is -4% (inactive)

---

- Assay Protocol: NCI Yeast Anticancer Drug Screen. Data for the mec2-1 strain (AID 157)
- Applied Conditions: S. cerevisiae mec2-1 strain, at 100.0 µM, hits give high values
Compounds without any hit were thinned out: in the full panel of roughly 79,000, 15% have a hit.
Quantity Name: growth inhibition (%)
Provide the reading as a plain figure in %.

Here is how some compounds turned out for growth inhibition.
- Input Smiles: "CN(CCc1ccccn1)c1ccc2c(c1)Cc1ccccc1-2"
  Unit Descriptor: "%"
  growth inhibition: 20
- Input Smiles: "O=C(Nc1ccccc1)OCCc1ccc(Cl)c(Cl)c1"
  Unit Descriptor: "%"
  growth inhibition: 47

Now look at this one.
Consider Cc1nc(-c2ccccc2)c(-c2ccccc2)s1 . Its measured growth inhibition is 97

---

- Assay Protocol: NCI Yeast Anticancer Drug Screen. Data for the sgs1 strain (AID 173);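 further: 0% = growth of vehicle-only control cultures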
- Applied Conditions: S. cerevisiae sgs1 mutant, at 3.7 µM
This is part of a sample that, as a whole, favours compounds with a hit. Of some 79,000 tested, about 15% had one in any assay. The source made the active and inactive calls. No stated cut-off is given here; in the data, active means growth inhibition above about 70%; inactive means the rest.
Form entry, call: pick from t for active, f for inactive

Some solved entries appear below for comparison.
- Molecule: "O=[N+]([O-])c1cc(CCl)ccc1CCl"
  Classification: "f"
- Molecule: "CCCCCCCCCCC1CCC(=O)O1 (stereo unspecified)"
  Classification: "f"
- Molecule: "O=[N+]([O-])c1cccc2nccc(NCCCO)c12"
  Classification: "f"
- Molecule: "CCOC(=O)c1cnc2c(C(F)(F)F)cccc2c1N=[N+]=[N-]"
  Classification: "f"
- Molecule: "Cc1ccc(N)c(S)c1"
  Classification: "f"

Dear all, I need the recorded test outcome for BrCc1cccc2ccc3cccc(CBr)c3c12 , thank you.
f

Dear all, I need the recorded test outcome for Nc1ccc2c(c1)C(=O)c1cccc(N)c1C2=O , thank you.
f

Dear all, I need the recorded test outcome for CCC/C(Cl)=N\OC(=O)Nc1ccc(Br)cc1 , thank you.
f

Dear all, I need the recorded test outcome for COc1cc2c3c(cccc3c1)C(=O)N(CCN(C)C)C2=O , thank you.
f

Dear all, I need the recorded test outcome for OC1(c2ccccc2)CSC2=Nc3ccccc3C3CCN1N23 (stereo unspecified) , thank you.
f

Dear all, I need the recorded test outcome for CC(C)NC(=O)OCc1c(COC(=O)NC(C)C)c(-c2ccc(Cl)c(Cl)c2)n2c1CCC2 , thank you.
f

Dear all, I need the recorded test outcome for COc1ccc(C2c3cc4c(cc3OC(C)(O)C2C)OCO4)c(OC)c1 (stereo unspecified) , thank you.
f

Dear all, I need the recorded test outcome for Cc1c(C(Cc2ccccc2N(C)C(=O)/C=C\C(=O)O)c2c[nH]c3ccccc23)c2ccccc2n1C (stereo unspecified) , thank you.
f

Dear all, I need the recorded test outcome for COc1cc(CC2CC(c3ccc4c(c3)OCO4)OC2=O)cc(OC)c1OC (stereo unspecified) , thank you.
f

Dear all, I need the recorded test outcome for CCC(C)COC(=O)c1ccc(N=Cc2ccc(C=Nc3ccc(C(=O)OCC(C)CC)cc3)cc2)cc1 (stereo unspecified) , thank you.
f

Dear all, I need the recorded test outcome for Cc1ccc(Nc2nc3c(=O)n(C)c(=O)n(C)c3nc2Nc2ccc(C)cc2)cc1 , thank you.
f

---

- Assay Protocol: NCI Yeast Anticancer Drug Screen. Data for the sgs1 strain (AID 173);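 further: 0% = growth of vehicle-only control cultures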
- Applied Conditions: S. cerevisiae sgs1 mutant, at 100.0 µM, hits give high values
About 79,000 compounds went through this panel and 15% of them were active in at least one assay; those are over-represented in the sample as a whole.
Quantity Name: growth inhibition (%)
Provide the reading as a plain figure in %.

- Compound: "CCCCCCCCCCCCCC[N+](C)(CC(=O)[O-])Cc1ccccc1 (stereo not given)"
  growth inhibition, %: 99
- Compound: "C/C(=N\\NC(=S)N1CCCCC1)c1cccc(C)n1"
  growth inhibition, %: 98
- Compound: "O=C1C=CC(=Nc2ccc3c(c2)Cc2cc(NC(=O)C(F)(F)F)ccc2-3)O1"
  growth inhibition, %: 98

Consider COCCOC(=O)CCn1cc(F)c(=O)[nH]c1=O . Its measured growth inhibition is 88

Consider O=C(N=Nc1ccccc1Cl)NNc1ccccc1Cl . Its measured growth inhibition is 19

Consider CC(=O)OCc1ccc(O)c(C=O)c1 . Its measured growth inhibition is 63

Consider NC(=NCc1ccccc1)N/N=C\c1ccnc2ccccc12 . Its measured growth inhibition is 61

Consider CC[C@@]1(O)C(=O)OCc2c1cc1n(c2=O)Cc2cc3c(CN(C)C)c(O)ccc3nc2-1 . Its measured growth inhibition is 5

Consider COc1ccc2nc3c([N+](=O)[O-])ccc(NCCN(C)C)c3c(NCCN(C)C)c2c1 . Its measured growth inhibition is 2

Consider O=[N+]([O-])CC(SCc1ccccc1)c1ccc2c(c1)OCO2 (stereo not given) . Its measured growth inhibition is 99
